# assay.system: GTPase HRas (Homo sapiens) (UniProt P01112)
# Sequence (P01112 whole entry, looked up): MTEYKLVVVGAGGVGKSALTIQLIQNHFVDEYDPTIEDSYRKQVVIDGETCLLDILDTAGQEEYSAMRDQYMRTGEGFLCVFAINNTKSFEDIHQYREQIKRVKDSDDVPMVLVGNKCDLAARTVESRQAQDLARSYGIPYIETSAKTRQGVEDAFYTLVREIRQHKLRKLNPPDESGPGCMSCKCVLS
# procedure.text: Ras wt fluorescent GTP loading blockade – biochemical, wildtype, multiplex bead flow cytometry, dose response (AID 1335)
# particulars: bead-based flow cytometry, Bodipy-GTP binding to GST-Ras; at 100 µM (top of the series) unless noted
Lab note: anything with GTP binding, percent of control below 80% is marked 1.0; values at 80% or higher are marked 0.0.

The examples below pair each entry with its known result.
Request: Field: below-cutoff. Rule: recorded GTP binding, percent of control strictly less than 80%. Subject: CCOC(=O)Cn1nnnc1C(C(C)C)N(Cc1cccs1)Cc1cc2cc(C)ccc2[nH]c1=O (configuration not stated)
Result: 0.0

Request: Field: below-cutoff. Rule: recorded GTP binding, percent of control strictly less than 80%. Subject: Oc1ccc(C2=Nn3c(nnc3-c3ccco3)SC2)cc1O
Result: 1.0

Request: Field: below-cutoff. Rule: recorded GTP binding, percent of control strictly less than 80%. Subject: O=C(CSc1ccc2nnc(-c3ccncc3)n2n1)Nc1nccs1
Result: 1.0

Request: Field: below-cutoff. Rule: recorded GTP binding, percent of control strictly less than 80%. Subject: O=C(NCc1ccc2c(c1)OCO2)c1ccc(CSCc2cccc(Cl)c2)o1
Result: 1.0

Request: Field: below-cutoff. Rule: recorded GTP binding, percent of control strictly less than 80%. Subject: C/C=C/c1ccccc1OCc1ccc(C(=O)O)o1
Result: 0.0

Request: Field: below-cutoff. Rule: recorded GTP binding, percent of control strictly less than 80%. Subject: COc1ccc(/C=C2\CCCC3C2=NN(C(=O)c2scnc2C)C3c2ccc(OC)c(OC)c2)cc1OC (configuration not stated)
Result: 0.0

Request: Field: below-cutoff. Rule: recorded GTP binding, percent of control strictly less than 80%. Subject: O=c1nc2c(O)cccn2c2c1c(=O)[nH]c1ccccc12
Result: 1.0

Request: Field: below-cutoff. Rule: recorded GTP binding, percent of control strictly less than 80%. Subject: CCCCCN1CC(O)=C(c2nc(-c3ccc(Cl)cc3)cs2)C1=N
Result: 0.0

Further cases:
Request: Field: below-cutoff. Rule: recorded GTP binding, percent of control strictly less than 80%. Subject: COc1cc(CCNc2ccc3nnc(-c4ccccc4)n3n2)cc(OC)c1OC
Result: 1.0

Request: Field: below-cutoff. Rule: recorded GTP binding, percent of control strictly less than 80%. Subject: Cc1ccc2cc3cc(C(=O)N4CCN(Cc5ccccc5)CC4)sc3nc2c1
Result: 0.0

Request: Field: below-cutoff. Rule: recorded GTP binding, percent of control strictly less than 80%. Subject: O=C(O)/C=C\C(=O)Nc1cccc(C(=O)Nc2cccc(O)c2)c1
Result: 0.0

Request: Field: below-cutoff. Rule: recorded GTP binding, percent of control strictly less than 80%. Subject: Cc1ccc(Cc2cnc(NC(=O)/C(C#N)=C/c3ccc(-c4ccc([N+](=O)[O-])cc4)o3)s2)cc1
Result: 1.0

Request: Field: below-cutoff. Rule: recorded GTP binding, percent of control strictly less than 80%. Subject: O=C(COC(=O)c1ccc2c(c1[N+](=O)[O-])C(=O)c1ccccc1C2=O)NC1CC1
Result: 1.0

Request: Field: below-cutoff. Rule: recorded GTP binding, percent of control strictly less than 80%. Subject: CC(=O)OC(C(=O)NC1CCCCC1)c1ccc(Cl)c(Cl)c1 (configuration not stated)
Result: 0.0

Request: Field: below-cutoff. Rule: recorded GTP binding, percent of control strictly less than 80%. Subject: C=CCN1C(=O)/C(=C/C=C2/N(CC)c3ccc(S(=O)(=O)N(C)C)cc3N2CC)SC1=S
Result: 0.0

Request: Field: below-cutoff. Rule: recorded GTP binding, percent of control strictly less than 80%. Subject: O=C(O)c1ccc(COc2cccc(Cl)c2)o1
Result: 0.0

Request: Field: below-cutoff. Rule: recorded GTP binding, percent of control strictly less than 80%. Subject: Cc1cc(C(=O)NNC(=S)NC(C)c2ccccc2)c2ccccc2n1 (configuration not stated)
Result: 0.0

Request: Field: below-cutoff. Rule: recorded GTP binding, percent of control strictly less than 80%. Subject: COc1cc(NC(=O)c2cccs2)c(OC)cc1NC(=O)CCC(=O)Nc1ccc2ncccc2c1
Result: 1.0
